System: HCVPV1b subgenomic replicon (wild type 1b)
Assay: HCV replicon RNA replication assay, wild type 1b
Type: cell-based, HCV genotype 1b (Con-1), Huh-7 cells
Settings: Hepatitis C virus; Table 1; luciferase replicon, Huh-7, 72 h; read-out: WT 1b Ec50
Grouping key: EC50. Bins: A = under 0.2 nM, B = from 0.2 nM up to 0.5 nM, C = 0.5 nM and over

- Molecule: "COc1c(F)ccc2c(O[C@@H]3C[C@H]4C(=O)N[C@]5(C(=O)NS(=O)(=O)C6(C)CC6)C[C@H]5/C=C\\CCCCC[C@H](NC(=O)c5ccn(C(F)F)n5)C(=O)N4C3)cc(OC(C)C)nc12"
  Answer label: "B"
- Molecule: "COc1ccc2c(O[C@@H]3C[C@H]4C(=O)N[C@]5(C(=O)NS(=O)(=O)C6CC6)C[C@H]5/C=C\\CCCCC[C@H](NC(=O)c5ccc(C(C)(C)O)s5)C(=O)N4C3)cc(OC(C)C)nc2c1C"
  Answer label: "C"
- Molecule: "Cc1ccc2c(O[C@@H]3C[C@H]4C(=O)N[C@]5(C(=O)NS(=O)(=O)C6(C)CC6)C[C@H]5/C=C\\CCCCC[C@H](NC(=O)c5ccn(C)n5)C(=O)N4C3)cc(OC(C)C)nc2c1Br"
  Answer label: "A"
- Molecule: "COc1c(F)ccc2c(O[C@@H]3C[C@H]4C(=O)N[C@]5(C(=O)NS(=O)(=O)C6(C)CC6)C[C@H]5/C=C\\CCCCC[C@H](NC(=O)c5ccn(C(C)C)n5)C(=O)N4C3)cc(OC(C)C)nc12"
  Answer label: "B"
- Molecule: "COc1c(F)ccc2c(O[C@@H]3C[C@H]4C(=O)N[C@]5(C(=O)NS(=O)(=O)C6(C)CC6)C[C@H]5/C=C\\CCCCC[C@H](NC(=O)c5ccn(CCF)n5)C(=O)N4C3)cc(OC(C)C)nc12"
  Answer label: "B"
- Molecule: "Cc1c(O)ccc2c(O[C@@H]3C[C@H]4C(=O)N[C@]5(C(=O)NS(=O)(=O)C6(C)CC6)C[C@H]5/C=C\\CCCCC[C@H](NC(=O)c5ccn(C)n5)C(=O)N4C3)cc(OC(C)C)nc12"
  Answer label: "C"
- Molecule: "COc1c(F)ccc2c(O[C@@H]3C[C@H]4C(=O)N[C@]5(C(=O)NS(=O)(=O)C6(C)CC6)C[C@H]5/C=C\\CCCCC[C@H](NC(=O)c5ccn(C)n5)C(=O)N4C3)cc(OC(C)C)nc12"
  Answer label: "B"
- Molecule: "COc1ccc2c(O[C@@H]3C[C@H]4C(=O)N[C@]5(C(=O)NS(=O)(=O)C6(C)CC6)C[C@H]5/C=C\\CCCCC[C@H](NC(=O)c5ccn(CC(F)F)n5)C(=O)N4C3)cc(OC(C)C)nc2c1C"
  Answer label: "A"
